system.under.test: human TSHR (Homo sapiens)
Construct: expressed in transfected cells
Sequence (P16473 21-764): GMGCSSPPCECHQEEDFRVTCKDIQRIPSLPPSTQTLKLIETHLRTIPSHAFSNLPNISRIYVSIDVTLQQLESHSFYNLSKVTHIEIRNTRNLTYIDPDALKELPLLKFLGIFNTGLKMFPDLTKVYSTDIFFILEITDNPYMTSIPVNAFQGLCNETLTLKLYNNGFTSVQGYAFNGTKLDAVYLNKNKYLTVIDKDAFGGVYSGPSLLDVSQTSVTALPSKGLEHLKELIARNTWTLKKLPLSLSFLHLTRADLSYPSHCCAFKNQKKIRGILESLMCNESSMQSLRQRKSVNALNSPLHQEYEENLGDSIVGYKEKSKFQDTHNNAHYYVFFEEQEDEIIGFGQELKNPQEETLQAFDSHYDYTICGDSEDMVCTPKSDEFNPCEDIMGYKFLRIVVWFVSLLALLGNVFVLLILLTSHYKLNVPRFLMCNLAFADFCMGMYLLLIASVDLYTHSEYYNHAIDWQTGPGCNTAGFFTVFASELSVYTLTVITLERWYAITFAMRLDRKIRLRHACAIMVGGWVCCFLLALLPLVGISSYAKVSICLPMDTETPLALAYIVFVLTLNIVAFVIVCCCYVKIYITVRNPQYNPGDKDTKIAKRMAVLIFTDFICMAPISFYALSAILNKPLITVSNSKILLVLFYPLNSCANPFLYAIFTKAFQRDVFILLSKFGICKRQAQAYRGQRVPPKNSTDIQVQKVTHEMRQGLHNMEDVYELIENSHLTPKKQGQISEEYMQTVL
assay.protocol: Homogeneous Time Resolved Fluorescence (HTRF) cAMP assay, TSHR cell line
Format: cell-based
run.parameters: HTRF cAMP, TSHR cell line, 30 minute incubation; read-out: AC50
measurement.kind: AC50 (µM)

Sample records with AC50:
molecule | unit.info | AC50
COc1ccc(C(=O)N(Cc2ccco2)Cc2ccco2)c(O)c1 [Structure 122] | µM | 50.1
COc1ccc(-c2nc3ccccc3c(=O)n2Cc2ccc(CNC(=O)CO)cc2)cc1COc1ccc(NC(C)=O)cc1 [Structure 126] | µM | 17.8
COc1ccc(C2Nc3ccc(NC(C)=O)cc3C(=O)N2Cc2cccc(Cl)c2)cc1COc1ccc(NC(C)=O)cc1 (stereo not shown) | µM | 7.94
COc1ccc(C2Nc3ccccc3C(=O)N2Cc2ccco2)cc1COc1ccc(NC(C)=O)cc1 (stereo not shown) [Structure 6] | µM | 17.8

a: COc1ccc(CN(Cc2ccccc2)C(=O)c2ccncc2)cc1COc1ccc(NC(C)=O)cc1 [Structure 69]
b: COc1ccc(C2Nc3ccccc3C(=O)N2Cc2ccccc2)cc1CSc1ccc(NC(C)=O)cc1 (stereo not shown) [Structure 38]
c: COc1ccc(C2Nc3ccccc3C(=O)N2Cc2ccc(CNC(=O)CO)cc2)cc1COc1ccc(NC(C)=O)cc1 (stereo not shown) [Structure 128]
Put the entries in order of AC50, starting with the largest number. # the answer lists labels in the order requested
c, a, b

###

system.under.test: human TSHR (Homo sapiens)
Construct: expressed in transfected cells
assay.protocol: Homogeneous Time Resolved Fluorescence (HTRF) cAMP assay, TSHR cell line
Assay type: cell-based
run.parameters: HTRF cAMP, TSHR cell line, 30 minute incubation; read-out: AC50
From the text: Generation of Stable Cell-Lines Expressing TSHR, LHCGR or FSHR. cDNA for human TSHR was amplified by PCR from hTSHR-pSVL (1) and inserted into the pcDNA3.1(−)/hygromycin vector using restriction sites XhoI and BamHI. cDNA for human LHCGR was amplified by PCR from hLHR-pGS5 (2) and was inserted into the pcDNA3.1(+)/hygromycin vector using restriction sites BamHI and XhoI. […] Homogeneous Time Resolved Fluorescence (HTRF) cAMP Assay. […]
measurement.kind: AC50 (µM)

Sample records with AC50:
molecule | AC50 [µM]
CCCCN1C(=O)c2ccccc2NC1c1ccc(OC)c(COc2ccc(NC(C)=O)cc2)c1 (stereo not shown) [Structure 16] | 20
COc1ccc(CN(Cc2ccccc2)C(=O)c2ccccc2)cc1COc1ccc(NC(C)=O)cc1 [Structure 98] | 14.1
COc1ccc(CN(Cc2ccccc2)C(=O)c2ccc(OC)cc2O)cc1 [Structure 124] | 31.6
COc1ccc(-c2nc3ccccc3c(=O)n2Cc2ccccc2)cc1COc1ccc(NC(C)=O)cc1 [Structure 97] | 15.8

P: COc1ccc(C2Nc3ccccc3C(=O)N2Cc2ccco2)cc1COc1ccc(NC(C)=O)cc1 (stereo not shown) [Structure 23]
Q: COc1ccc(C2N(Cc3ccccc3)C(=O)c3ccccc3N2C)cc1COc1ccc(NC(C)=O)cc1 (stereo not shown) [Structure 267]
R: COc1ccc(C2Nc3ccccc3C(=O)N2Cc2cccnc2)cc1COc1ccc(NC(C)=O)cc1 (stereo not shown) [Structure 111]
S: COc1ccc(CN2C(=O)c3ccccc3NC2c2ccc(OC)c(COc3ccc(NC(C)=O)cc3)c2)cc1 (stereo not shown) [Structure 3]
Arrange items by their AC50 values in increasing order. # the answer lists labels in the order requested
S, Q, P, R

a: COc1ccc(C(=O)N(Cc2ccccc2)Cc2ccc(OC)c(COc3ccc(NC(C)=O)cc3)c2)cc1 [Structure 15]
b: COc1ccc(CN(Cc2ccccc2)C(=O)c2ccno2)cc1COc1ccc(NC(C)=O)cc1 [Structure 249]
c: COc1ccc(C2Nc3ccccc3C(=O)N2CC(C)(C)C)cc1COc1ccc(NC(C)=O)cc1 (stereo not shown) [Structure 276]
Arrange items by their AC50 values in increasing order. # the answer lists labels in the order requested
a, c, b
(a: 12.6 µM, c: 25.1 µM, b: 50.1 µM)

I: COc1ccc(C2Nc3ccccc3C(=O)N2CCc2ccccc2)cc1COc1ccc(NC(C)=O)cc1 (stereo not shown) [Structure 70]
II: COc1ccc(C2Nc3ccccc3C(=O)N2Cc2ccccn2)cc1COc1ccc(NC(C)=O)cc1 (stereo not shown) [Structure 269]
I would appreciate it if you could say which entry, I or II , has the lower AC50 value. # reply format: chosen label
I

I: COc1ccc(C2Nc3ccc(NC(=O)COC(C)=O)cc3C(=O)N2Cc2ccccc2)cc1COc1ccc(NC(C)=O)cc1 (stereo not shown) [Structure 66]
II: COc1ccc(C2Nc3ccccc3C(=O)N2Cc2ccco2)cc1COc1ccc(NC(C)=O)cc1 (stereo not shown) [Structure 42]
# argmax over AC50 for candidates I and II # reply format: chosen label
II
(II: 14.1 µM, I: 8.91 µM)

The measured values listed here are drawn from patent US9458141B2.
